Test: Extended room temperature storage of treprostinil monohydrate lot D-1007-089 (18-month stability summary: water content, assay/impurity profile)
Assay type: physicochemical
Details: Initial, Container 1 (closed), room temperature
measurement label: 751W93 (%)
The reply should be a number in %, with the unit left off.

// field: 751W93; key: CCCCC[C@H](O)CC[C@@H]1[C@H]2Cc3cccc(OCC(=O)O)c3C[C@H]2C[C@H]1O [TREPROSTINIL Lot# D-1007-089, treprostinil monohydrate] ; value = 0.04
